- Tested on: MDCK II cells
- procedure_summary: In vitro cytotoxicity, CellTiter-Glo, MDCK II cells
- condition_set: 100 μM
measured_endpoint: cytotoxicity against MDCK II (in words)

CC1(C)CC(Cl)CN(Cc2cccc(CN3CC(Cl)CC(C)(C)C3)c2)C1 (centres unmarked)
cytotoxic
CN(C)c1cc(CN2CC(Cl)CC(C)(C)C2)cc(CN2CC(Cl)CC(C)(C)C2)c1 (centres unmarked)
cytotoxic
COc1ccc(CN2CC(Cl)CC(C)(C)C2)c(CN2CC(Cl)CC(C)(C)C2)c1 (centres unmarked)
cytotoxic

---

- procedure_summary: in vitro
- condition_set: dog
Recorded measurements of CC50, one per entry
Write down the numeric answer in µM and omit the unit.

Please review the entries below; each comes with its answer.
COc1cc(CN2CC(Cl)CC(C)(C)C2)cc(CN2CC(Cl)CC(C)(C)C2)c1 (stereo not drawn)
83
COC(=O)[C@H](CCCCN1CC(Cl)CC(C)(C)C1)N1CC(Cl)CC(C)(C)C1 (stereo partly drawn)
123
COC(=O)c1cc(CN2CC(Cl)CC(C)(C)C2)cc(CN2CC(Cl)CC(C)(C)C2)c1 (stereo not drawn)
205

Name the recorded CC50 for COc1ccc(CN2CC(Cl)CC(C)(C)C2)c(CN2CC(Cl)CC(C)(C)C2)c1 (stereo not drawn) .
70

src = paper PMC11718441
